Catalogue of β-arrestin recruitment (PathHunter): EC50 mean values
# SYSTEM: human GLP1R (hGLP1R) with a Prolink tag, on CHO-hGLP1R-β-arrestin cells (human, UniProt P43220 24-463)
# TEST NAME: cell-based or functional assay
Give just the numeric value; nM need not be written.

Complete the entry with β-arrestin recruitment (PathHunter): EC50 mean for HXEGTFTSDVSSYLEGQAAKEFIAWLVRGRG (Aib at position 8 (GLP-1 numbering); side-chain NH of the Lys residue acylated, via a PEG24 linker, with the 11-carbamoyl-henicosane-1,11,21-tricarboxylic acid moiety (from NHS ester Intermediate 29)) [Compound 6]
70
